- Test system: HeLa cells
- test_method_notes: Cell cycle assay in HeLa cells
- Format: cell-based, human
- particulars: HeLa cells, 150 nM oligomeric compound, 24 hours, relative to untreated control (UTC = 100)
In the oligonucleotide strings, read from the 5' end, every base follows the letter of its sugar. An asterisk marks phosphorothioate; unmarked linkages are phosphodiester. Other units and linkages are bracketed, terminal groups are in braces. A string of capitals states the bases alone. e = 2'-O-(2-methoxyethyl) (MOE); [5mC] = 5-methylcytosine; d = 2'-deoxy (DNA)
assay_endpoint: % cells in cell cycle phase subG1 (%)
Supply the numeric figure in %, leaving out any unit text.

>  <substance>
328647 (eG*eG*eA*eG*eT*dA*dG*dA*dT*dG*dA*dT*dG*dG*dT*eT*eA*eG*e[5mC]*e[5mC]; antisense) [compound 328647]

>  <measured_target>
HeLa cells

>  <unit_text>
%

>  <value_reported>
140

$$$$
>  <substance>
338826 (antisense CGGATCCTGTTACCTCACCA; all 2'-MOE, all phosphorothioate, methylation of C not given here) [compound 338826]

>  <measured_target>
HeLa cells

>  <unit_text>
%

>  <value_reported>
145

$$$$
>  <substance>
327904 (antisense eA*e[5mC]*eT*e[5mC]*eA*e[5mC]*e[5mC]*eG*eA*e[5mC]*eA*eG*e[5mC]*eG*eT*eT*eG*eA*eA*eT*eG*eT*eT) [compound 327904]

>  <measured_target>
HeLa cells

>  <unit_text>
%

>  <value_reported>
114

$$$$
>  <substance>
338769 (antisense GCTTCCCAGCGGCCTATAGT; all 2'-MOE, all phosphorothioate, methylation of C not given here) [compound 338769]

>  <measured_target>
HeLa cells

>  <unit_text>
%

>  <value_reported>
188

$$$$

Please find the next substance below.
# % cells in cell cycle phase subG1 (substance: 327877 (antisense e[5mC]*eG*e[5mC]*e[5mC]*eA*eA*eT*eA*eT*eT*eT*eA*e[5mC]*eG*eT*eG*e[5mC]*eT*eG*e[5mC]*eT*eA) [compound 327877] ) is 154

Provenance of the data: patent US8178506B2
